# EXPERIMENT NOTES: Experimental miscibility and solubility in solvents
# CONDITION NOTES: trichloromethane (tClMe), organic solvent or mixture, Solubility in tCIMe, target molecules
RECORDED METRIC: solubility

For reference, reported solubility for `COc1cccc2c1C(=O)c1c(O)c3c(c(O)c1C2=O)C[C@@](O)(C(=O)CO)C[C@@H]3O[C@H]1C[C@H](N)[C@H](O)[C@H](C)O1` stands at ~1000 µg/mL

----------
Could you please report measured Spont. Act. (amount of spontaneously activated bubbles) for the items listed next?
# EXPERIMENT NOTES: Microscopy scoring of spontaneously and US activated bubbles
# Assay type: physicochemical
# Parameters: key: Score 0 = no or very limited; Score 1 = medium and; Score 2 = high
# CONDITION NOTES: oil as C2 microdroplet phase mixed with C1; 37° C.; bubbles >~15 μm
Give bare numbers.

Consider the reported Spont. Act. (amount of spontaneously activated bubbles) for these compounds:
>  <COMPOUND>
C=CC(F)(F)C(F)(F)C(F)(F)C(F)(F)F

>  <NUMERIC READOUT>
1

$$$$
>  <COMPOUND>
FC(F)(F)C1(F)C(F)(F)C(F)(F)C(F)(F)C1(F)F

>  <NUMERIC READOUT>
0

$$$$

Parameter requested: Spont. Act. (amount of spontaneously activated bubbles). Apply to each item below.
1. FC(F)C(F)(F)C(F)(F)C(F)(F)C(F)(F)C(F)(F)F
2. FC(F)(F)C(F)(F)C(F)(F)C(F)(F)C(F)(F)C(F)(F)C(F)(F)F
3. FC(F)(F)C(F)(F)C(F)(F)C(F)(F)C(F)(F)C(F)(F)F
4. FC(C(F)C(F)(F)C(F)(F)F)C(F)(F)F (stereo not drawn)

Ans:
1. 1
2. 0
3. 0
4. 1

Origin of the recorded values: patent US12343396B2
